system: primary cultures of RPE of adult pigs; assay: In vitro photoprotection of RPE cells illuminated with blue light in the presence of A2E; assay type: cell-based, pig; conditions: Sus scrofa, RPE, 5 μM compound, A2E 30 μM, survival 24 h after illumination
Parameter Measured: viability at 5 µM (%)
A number alone suffices; assume %.

As a guide, the following entries are already answered.
CC(=C/C=C/C(C)=C/C=C/C=C(C)/C=C/C=C(C)/C=C/C(=O)NCCc1ccc(O)cc1)/C=C/C(=O)O [C16] :: 70.2
CC(=C/C=C/C(C)=C/C=C/C=C(C)/C=C/C=C(C)/C=C/C(=O)N1CCOCC1)/C=C/C(=O)O [C2] :: 33.9
CC(=C/C=C/C(C)=C/C=C/C=C(C)/C=C/C=C(C)/C=C/C(=O)NCCO)/C=C/C(=O)O [C4] :: 16.4

What does the record list as viability at 5 µM for CC(=C/C=C/C(C)=C/C=C/C=C(C)/C=C/C=C(C)/C=C/C(=O)NCCN1CCOCC1)/C=C/C(=O)O [C10] ?
15.5

Field request: viability at 5 µM | item: CC(=C/C=C/C(C)=C/C=C/C=C(C)/C=C/C=C(C)/C=C/C(=O)N1CCC(C(=O)O)CC1)/C=C/C(=O)O [C18]
27.3

Looking for the measured viability at 5 µM of CC(=C/C=C/C(C)=C/C=C/C=C(C)/C=C/C=C(C)/C=C/C(=O)N1CCC(O)CC1)/C=C/C(=O)O [C12] , can you help?
7.7

If you can, please state the reported viability at 5 µM value of CC(=C/C=C/C(C)=C/C=C/C=C(C)/C=C/C=C(C)/C=C/C(=O)N1CCC(CO)CC1)/C=C/C(=O)O [C14] .
3.1

Can you share its viability at 5 µM? I mean this compound: CC(=C/C=C/C(C)=C/C=C/C=C(C)/C=C/C=C(C)/C=C/C(=O)N[C@H]1CC[C@H](O)CC1)/C=C/C(=O)O [C19]
60.6

Can you share its viability at 5 µM? I mean this compound: CC(=C/C=C/C(C)=C/C=C/C=C(C)/C=C/C=C(C)/C=C/C(=O)N1CCCCC1)/C=C/C(=O)O [C3]
11.3

Which viability at 5 µM value belongs to CCCOC1CCN(C(=O)/C=C/C(C)=C/C=C/C(C)=C/C=C/C=C(C)/C=C/C=C(C)\C=C\C(=O)O)CC1 [C22] ?
64.5

I am curious: what viability at 5 µM value has been reported for COCCNC(=O)/C=C/C(C)=C/C=C/C(C)=C/C=C/C=C(C)/C=C/C=C(C)\C=C\C(=O)O [C1] ?
55

Quick check: viability at 5 µM of CC(=C/C=C/C(C)=C/C=C/C=C(C)/C=C/C=C(C)/C=C/C(=O)N1CCC(O)C1)/C=C/C(=O)O (stereo in doubt) [C9] ?
22.1

State the recorded viability at 5 µM for this entry: CC(=C/C=C/C(C)=C/C=C/C=C(C)/C=C/C=C(C)/C=C/C(=O)N1CCCC1)/C=C/C(=O)O [C7]
5.2

Field request: viability at 5 µM | item: COC1CCCN(C(=O)/C=C/C(C)=C/C=C/C(C)=C/C=C/C=C(C)/C=C/C=C(C)\C=C\C(=O)O)C1 (centres unmarked) [C20]
65.6

* * *

tested on: primary cultures of RPE of adult pigs; assay: In vitro photoprotection of RPE cells illuminated with blue light in the presence of A2E; assay type: cell-based, pig; conditions: Sus scrofa, RPE, 5 μM compound, A2E 30 μM, survival 24 h after illumination
viability at 5 µM vs 20%: less than gives YES; not less than gives NO.

CC(=C/C=C/C(C)=C/C=C/C=C(C)/C=C/C=C(C)/C=C/C(=O)NCCCN1CCOCC1)/C=C/C(=O)O :: NO

Just wondering, is viability at 5 µM of `CC(=C/C=C/C(C)=C/C=C/C=C(C)/C=C/C=C(C)/C=C/C(=O)N1C[C@@H](C)O[C@@H](C)C1)/C=C/C(=O)O` below 20%?
YES

Does this compound meet the criterion viability at 5 µM < 20%? `COC1CCN(C(=O)/C=C/C(C)=C/C=C/C(C)=C/C=C/C=C(C)/C=C/C=C(C)\C=C\C(=O)O)CC1`
NO

Is viability at 5 µM of `CCOCC1CCN(C(=O)/C=C/C(C)=C/C=C/C(C)=C/C=C/C=C(C)/C=C/C=C(C)\C=C\C(=O)O)CC1` strictly below 20%?
NO

Criterion: viability at 5 µM strictly below 20%. Is it met by `CC(=C/C=C/C(C)=C/C=C/C=C(C)/C=C/C=C(C)/C=C/C(=O)N1CCCOCC1)/C=C/C(=O)O` ?
YES

Is viability at 5 µM of `CC(=C/C=C/C(C)=C/C=C/C=C(C)/C=C/C=C(C)/C=C/C(=O)NCC(C)(C)N1CCOCC1)/C=C/C(=O)O` strictly below 20%?
YES

Is the reported viability at 5 µM for CC(=C/C=C/C(C)=C/C=C/C=C(C)/C=C/C=C(C)/C=C/C(=O)N1CCC(O)C1)/C=C/C(=O)O (stereo in doubt) [C11] strictly below 20%?
NO

* * *

assay: Pharmacokinetic study via oral administration in mice, plasma concentrations; format: in vivo, mice C57BL/6; conditions: C57BL/6, mouse, in vivo, po, 50 mg/kg
Response field label: string, one of Condition met (Cmax strictly below 7000 ng/mL) or Condition not met.

Recorded results for 4 molecules are shown here.
CC(=C/C=C/C(C)=C/C=C/C=C(C)/C=C/C=C(C)/C=C/C(=O)NCCCN1CCOCC1)/C=C/C(=O)O :: Condition not met
CC(=C/C=C/C(C)=C/C=C/C=C(C)/C=C/C=C(C)/C=C/C(=O)N[C@H]1CC[C@H](O)CC1)/C=C/C(=O)O :: Condition met
CCOCC1CCN(C(=O)/C=C/C(C)=C/C=C/C(C)=C/C=C/C=C(C)/C=C/C=C(C)\C=C\C(=O)O)CC1 :: Condition met
CC(=C/C=C/C(C)=C/C=C/C=C(C)/C=C/C=C(C)/C=C/C(=O)NCCN1CCOCC1)/C=C/C(=O)O :: Condition not met

Lab log: compare recorded Cmax with 7000 ng/mL; is it strictly lower for `CC(=C/C=C/C(C)=C/C=C/C=C(C)/C=C/C=C(C)/C=C/C(=O)N1CCC(C(=O)O)CC1)/C=C/C(=O)O` ?
Condition not met

* * *

experiment: Pharmacokinetic study via oral administration in mice, ocular concentrations; type: in vivo, mice C57BL/6; conditions: Table 3, repeats the eye exposure of Table 2; 50 mg/kg p.o.
The reader will find reported Eye Exposure 50 mg/kg p.o. AUC values listed item by item below.
Value expressed in ng · h/eye; do not type the unit.

The cases that follow already have their Eye Exposure 50 mg/kg p.o. AUC on record.
CC(=C/C=C/C(C)=C/C=C/C=C(C)/C=C/C=C(C)/C=C/C(=O)N1C[C@@H](C)O[C@@H](C)C1)/C=C/C(=O)O :: 108.5
CC(=C/C=C/C(C)=C/C=C/C=C(C)/C=C/C=C(C)/C=C/C(=O)N1CCC(O)C1)/C=C/C(=O)O (stereo in doubt) [C9] :: 452.0
COCCNC(=O)/C=C/C(C)=C/C=C/C(C)=C/C=C/C=C(C)/C=C/C=C(C)\C=C\C(=O)O :: 26.6
CC(=C/C=C/C(C)=C/C=C/C=C(C)/C=C/C=C(C)/C=C/C(=O)NCCc1ccc(O)cc1)/C=C/C(=O)O :: 8.7
COC1CCN(C(=O)/C=C/C(C)=C/C=C/C(C)=C/C=C/C=C(C)/C=C/C=C(C)\C=C\C(=O)O)CC1 :: 499.1
CCOCC1CCN(C(=O)/C=C/C(C)=C/C=C/C(C)=C/C=C/C=C(C)/C=C/C=C(C)\C=C\C(=O)O)CC1 :: 54.7
COC1CCCN(C(=O)/C=C/C(C)=C/C=C/C(C)=C/C=C/C=C(C)/C=C/C=C(C)\C=C\C(=O)O)C1 (centres unmarked) :: 421.9

Alright, here's another compound for you.
Could you tell me which Eye Exposure 50 mg/kg p.o. AUC is on file for `CC(=C/C=C/C(C)=C/C=C/C=C(C)/C=C/C=C(C)/C=C/C(=O)N1CCC(C(=O)O)CC1)/C=C/C(=O)O` ?
307.8

* * *

test: Pharmacokinetic study via oral administration in mice, plasma concentrations; assay type: in vivo, mice C57BL/6; conditions: C57BL/6, mouse, in vivo, po, 50 mg/kg
Parameter Measured: Plasma Exposure (µg·h/mL)
Please give a number only; it is taken to be in µg·h/mL.

# get_value(readout='Plasma Exposure', item= CC(=C/C=C/C(C)=C/C=C/C=C(C)/C=C/C=C(C)/C=C/C(=O)N1CCC(O)C1)/C=C/C(=O)O (stereo in doubt) [C11] )
190

So what's the measured Plasma Exposure for this one? `CCCOC1CCN(C(=O)/C=C/C(C)=C/C=C/C(C)=C/C=C/C=C(C)/C=C/C=C(C)\C=C\C(=O)O)CC1`
37.25

Give its Plasma Exposure value. Item: `CC(=C/C=C/C(C)=C/C=C/C=C(C)/C=C/C=C(C)/C=C/C(=O)N[C@H]1CC[C@H](O)CC1)/C=C/C(=O)O`
22.8

Request the reported Plasma Exposure associated with `CC(=C/C=C/C(C)=C/C=C/C=C(C)/C=C/C=C(C)/C=C/C(=O)N1CCCCC1)/C=C/C(=O)O`
10.37

Given the compound `CC(=C/C=C/C(C)=C/C=C/C=C(C)/C=C/C=C(C)/C=C/C(=O)N1C[C@@H](C)O[C@@H](C)C1)/C=C/C(=O)O` , what is its reported Plasma Exposure?
46.99

Return reported Plasma Exposure; argument: CC(=C/C=C/C(C)=C/C=C/C=C(C)/C=C/C=C(C)/C=C/C(=O)N1CCC(O)C1)/C=C/C(=O)O (stereo in doubt) [C9]
342.68

Fill blank: measured Plasma Exposure of the compound `COCCNC(=O)/C=C/C(C)=C/C=C/C(C)=C/C=C/C=C(C)/C=C/C=C(C)\C=C\C(=O)O` is ____.
52.66

What value of Plasma Exposure has been recorded for this entry: `CC(=C/C=C/C(C)=C/C=C/C=C(C)/C=C/C=C(C)/C=C/C(=O)NCCO)/C=C/C(=O)O`
208.6

Plasma Exposure lookup needed for COC1CCCN(C(=O)/C=C/C(C)=C/C=C/C(C)=C/C=C/C=C(C)/C=C/C=C(C)\C=C\C(=O)O)C1 (centres unmarked) , thanks.
160.4

If you can, please state the reported Plasma Exposure value of `CC(=C/C=C/C(C)=C/C=C/C=C(C)/C=C/C=C(C)/C=C/C(=O)N1CCC(C(=O)O)CC1)/C=C/C(=O)O` .
948.84

Reported Plasma Exposure for `CC(=C/C=C/C(C)=C/C=C/C=C(C)/C=C/C=C(C)/C=C/C(=O)NCCN1CCOCC1)/C=C/C(=O)O` : what is it?
108.1

Endpoint output: Plasma Exposure of `CC(=C/C=C/C(C)=C/C=C/C=C(C)/C=C/C=C(C)/C=C/C(=O)NCC(C)(C)N1CCOCC1)/C=C/C(=O)O` . Value?
139.7
